- tested.target: T1, human Nectin-4 (human, UniProt Q96NY8 32-510)
- T1 sequence (looked up): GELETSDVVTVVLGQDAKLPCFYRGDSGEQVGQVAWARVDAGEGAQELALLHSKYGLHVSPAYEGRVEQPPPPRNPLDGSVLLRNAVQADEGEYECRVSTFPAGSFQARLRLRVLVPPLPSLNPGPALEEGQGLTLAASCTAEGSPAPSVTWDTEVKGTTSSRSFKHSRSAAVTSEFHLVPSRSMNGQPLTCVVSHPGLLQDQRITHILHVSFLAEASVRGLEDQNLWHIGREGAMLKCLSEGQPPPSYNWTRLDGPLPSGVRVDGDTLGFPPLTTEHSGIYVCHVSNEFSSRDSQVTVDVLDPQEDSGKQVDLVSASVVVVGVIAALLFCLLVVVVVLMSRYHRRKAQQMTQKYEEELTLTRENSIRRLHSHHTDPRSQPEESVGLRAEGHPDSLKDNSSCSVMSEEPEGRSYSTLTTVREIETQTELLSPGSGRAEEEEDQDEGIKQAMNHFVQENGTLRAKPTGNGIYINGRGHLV
- procedure.details: cell-based or functional assay
Quick reference for Endocytosis efficiency (%) among some binders
Kindly provide the numeric value in % only, without the unit symbol.

# annotated cases, reported Endocytosis efficiency (%) shown
binder	unit.text	observed.value
20M12 hz01-E (antibody, human IgG1, kappa, V domains shown, vcMMAE conjugated to the TECP-reduced antibody; residues not stated; DAR 4.0±1) VH: QVQLVQSGAEVKKPGASVKVSCKASGYTFTSYYIHWVRQAPGQRLEWMGWIYPGNANNKYNENFKGRVTITRDTSASTAYMELSSLRSEDTAVYYCARSVYYFDYWGQGTLVTVSS VL: EVVMTQSPATLSVSPGERATLSCKASQSVSNDVAWYQQKPGQAPRLLIYYASNRNTGIPARFSGSGSGTEFTLTISSLQSEDLAVYFCQQDYSSPYTFGGGTKVEIKR	%	56.6
42D20 hz44-E (antibody, V domains shown, vcMMAE conjugated to the TECP-reduced antibody; residues not stated; DAR 4.0±1) VH: QVQLQESGPGLVKPSETLSLTCTVSGFSLIDYGVSWIRQPPGKGLEWIGVIWGDAKIYYNSVLKSRVTISKDNSKSQVSLKLSSVTAADTAVYYCAKQGGLLFYAMDYWGQGTLVTVSS VL: DIVMTQSPDSLAVSLGERATINCKSSQSLLNKYSQKNYLAWYQQKPGQPPKLLIYFASTRESGVPDRFSGSGSGTDFTLTISSLQAEDVAVYYCQQHYNTPFTFGAGTKLELKR	%	71.1

As a next step, examine the binder that follows.
Inquiry: Look up Endocytosis efficiency (%): Enfortumab-E (antibody, human IgG1, kappa, V domains shown, vcMMAE conjugated to the TECP-reduced antibody; residues not stated; DAR 4.0±1) VH: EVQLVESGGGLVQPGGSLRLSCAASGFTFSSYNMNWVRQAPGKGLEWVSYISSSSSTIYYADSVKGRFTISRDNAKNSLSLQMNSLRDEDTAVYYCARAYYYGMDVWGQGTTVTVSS VL: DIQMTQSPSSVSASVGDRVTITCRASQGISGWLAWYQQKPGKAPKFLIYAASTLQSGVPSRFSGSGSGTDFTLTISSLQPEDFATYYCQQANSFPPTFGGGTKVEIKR
Reply text: 58.9

Hello, the source for this data is patent US20230265183A1, in case you need it.
